# credit: patent US20090156577A1

# MIC per record follows
- System: pathogenic bacteria
- assayInfo: MIC by microdilution broth method (NCCLS M7-A4), in vitro antibacterial activity
- Format: cell-based
- condition: Streptococcus pneumoniae, Organism B: fluoroquinolone-resistant clinical isolate of Streptococcus pneumoniae (QRDR amino acid substitutions)

compound: NCC(Cl)=C1CN(c2c(F)cc3c(=O)c(C(=O)O)cn(C4CC4)c3c2OC(F)F)C1 [Compound 205]
MIC [µg/mL]: 2
//
compound: NC/C=C1/CCCN(c2c(F)cc3c(=O)c(C(=O)O)cn(C4CC4)c3c2OC(F)F)C1 [Compound 396]
MIC [µg/mL]: 2
//
compound: Cc1c(F)c(N2CCC/C(=C/CN)C2)cc2c1c(=O)c(C(=O)O)cn2C1CC1 [Compound 427]
MIC [µg/mL]: 2
//
compound: CCNCC(Cl)=C1CCN(c2c(F)cc3c(=O)c(C(=O)O)cn(C4CC4)c3c2OC)CC1 [Compound 75]
MIC [µg/mL]: 1
//
compound: COc1c(N2CCC(=C(Cl)CN)CC2)c(F)c(C)c2c(=O)c(C(=O)O)cn(C3CC3)c12 [Compound 455]
MIC [µg/mL]: 0.12
//
compound: C/C(CN)=C1\CCCN(c2cc3c(cc2F)c(=O)c(C(=O)O)cn3C2CC2)C1 [Compound 301]
MIC [µg/mL]: 8
//
compound: COc1c(N2CC(=C(Cl)CN)C2)c(F)cc2c(=O)c(C(=O)O)cn(C3CC3)c12 [Compound 189]
MIC [µg/mL]: 4
//
compound: NCC(Cl)=C1CCN(c2c(F)c(N)c3c(=O)c(C(=O)O)cn(C4CC4)c3c2F)CC1 [Compound 369]
MIC [µg/mL]: 0.06
